- Test system: morningglory
- test_name: Test A pre-/postemergence herbicide test
- Format: in vivo, Ipomoea spp.
- measurement_context: Preemergence, 2000 g ai/ha; visual rating, 0 to 100 scale (0 no effect, 100 complete control)

[
  {
    "compound_structure_string": "CCn1nc(C(C)(C)C)cc1C(=O)Nc1ccnc(C(=O)NCCF)c1",
    "Morningglory plant response rating": 5
  },
  {
    "compound_structure_string": "C#CCNC(=O)c1cccc(NC(=O)c2sc(C(C)(C)C)nc2C)c1",
    "Morningglory plant response rating": 15
  },
  {
    "compound_structure_string": "CCc1nn(C2CCCC2)nc1C(=O)Nc1cccc(C(=O)N(C)C)c1",
    "Morningglory plant response rating": 40
  },
  {
    "compound_structure_string": "CCn1nc(C(C)(C)C)cc1C(=O)Nc1cccc(OC(F)(F)F)c1",
    "Morningglory plant response rating": 55
  },
  {
    "compound_structure_string": "CCn1nc(C(C)(C)C)cc1C(=O)Nc1cccc(C(C)=NO)c1",
    "Morningglory plant response rating": 75
  },
  {
    "compound_structure_string": "CC(=NO)c1cccc(NC(=O)c2cc(C(C)(C)C)nn2C)c1",
    "Morningglory plant response rating": 90
  },
  {
    "compound_structure_string": "CCn1nc(C(C)(C)C)cc1C(=O)Nc1nccc(OC)n1",
    "Morningglory plant response rating": 0
  },
  {
    "compound_structure_string": "CCN(CC)C(=O)c1cccc(NC(=O)c2cc(C(C)(C)C)nn2CC)n1",
    "Morningglory plant response rating": 25
  },
  {
    "compound_structure_string": "C#CCNC(=O)c1cccc(NC(=O)c2sc(C(C)(C)C)nc2CC)n1",
    "Morningglory plant response rating": 0
  }
]

###

- System: pigweed
- test_name: Test B pre-/postemergence herbicide test
- Type: in vivo, Amaranthus retroflexus
- measurement_context: Postemergence, 500 g ai/ha; scale 0 (no effect) to 100 (complete control)
Label scheme for Pigweed plant response rating: lower than 70 is False, 70 and above is True.

[
  {
    "compound": "CCc1nn(C(C)(C)C)nc1C(=O)Nc1cc(C(=O)N(C)CC)ccc1F [Compound 388]",
    "qualitative_label": "False"
  },
  {
    "compound": "CCc1nn(C(C)(C)C)nc1C(=O)Nc1cccc(C(=O)N2CCCCC2)c1 [Compound 416]",
    "qualitative_label": "True"
  },
  {
    "compound": "COC(=O)c1ccc(F)c(NC(=O)c2nn(C(C)C)nc2C)c1 [Compound 398]",
    "qualitative_label": "False"
  },
  {
    "compound": "C#CCNC(=O)c1cccc(NC(=O)c2nn(C(C)C)nc2CC)c1 [Compound 379]",
    "qualitative_label": "False"
  },
  {
    "compound": "Cc1nn(C(C)(C)C)nc1C(=O)Nc1cncc(C(=O)N(C)C)c1 [Compound 426]",
    "qualitative_label": "False"
  },
  {
    "compound": "C=CCOc1cccc(NC(=O)c2cc(C(C)(C)C)nn2CC)c1 [Compound 412]",
    "qualitative_label": "True"
  }
]

###

Catalogue of compounds with associated Plant response rating, Cocklebur
- Test system: cocklebur
- test_name: Test B pre-/postemergence herbicide test
- Assay type: in vivo, Xanthium strumarium
- measurement_context: Postemergence, 500 g ai/ha; visual rating after 13 to 15 days, scale 0 (no effect) to 100 (complete control)

[
  {
    "compound_structure_string": "CCn1nc(C(C)(C)C)cc1C(=O)Nc1ccc(C)c(C(=O)OC(C)C)c1",
    "Plant response rating, Cocklebur": 0
  },
  {
    "compound_structure_string": "CCn1nc(C(C)(C)C)cc1C(=O)Nc1cccc(C(C)=NO)c1",
    "Plant response rating, Cocklebur": 90
  },
  {
    "compound_structure_string": "CCN(CC)C(=O)c1cccc(NC(=O)c2cc(C(C)(C)C)nn2CC(F)(F)F)c1",
    "Plant response rating, Cocklebur": 20
  }
]
